For each record, write down the corresponding EC50.
molecular target: human muscarinic M4 receptor (Homo sapiens); construct: expressed in transfected cells; test: Alphascreen Surefire phospho-ERK1/2 functional assay, M4; assay type: cell-based; details: CHO cells stably expressing human M4; phospho-ERK1/2; read-out: pEC50 M4 (converted)
Sequence (P08173 whole entry): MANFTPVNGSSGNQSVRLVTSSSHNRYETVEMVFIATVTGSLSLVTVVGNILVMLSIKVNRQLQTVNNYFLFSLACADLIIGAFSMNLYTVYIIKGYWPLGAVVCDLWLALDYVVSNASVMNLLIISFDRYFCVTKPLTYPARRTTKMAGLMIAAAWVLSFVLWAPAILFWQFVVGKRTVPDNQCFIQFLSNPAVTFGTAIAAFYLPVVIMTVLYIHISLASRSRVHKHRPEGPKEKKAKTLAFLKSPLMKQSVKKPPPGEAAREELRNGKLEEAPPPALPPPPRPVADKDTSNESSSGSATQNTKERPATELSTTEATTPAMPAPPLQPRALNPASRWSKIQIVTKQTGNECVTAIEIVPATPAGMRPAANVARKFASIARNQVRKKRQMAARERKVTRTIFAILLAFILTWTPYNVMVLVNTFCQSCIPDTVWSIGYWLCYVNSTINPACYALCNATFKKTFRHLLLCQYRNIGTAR

- CCOC(=O)N1CCC2(CC(N3CCC4(CC3)CC(=O)NC4CC)C2)C1 (single isomer, unassigned) [3-5 Isomer 2]: 3.16 nM
- CCOC(=O)N1CCC2(CC(N3CCC4(CC3)CNC(=O)O4)C2)C1 (single isomer, unassigned) [4-3 Isomer 1]: 316 nM
- CCOC(=O)N1CCC2(CC(N3CCC4(CC3)OC(=O)N(CC(C)C)C4CC)C2)C1 (single isomer, unassigned) [4-24 Isomer 2 (racemic)]: 10 nM
- CCCN1C(=O)OC2(CCN(C3CC4(CCN(C(=O)OCC)C4)C3)CC2)C1(C)C (single isomer, unassigned) [4-37 Isomer 2]: > 20000 nM
- CCC1NC(=O)CC12CCN(C1CC3(CCN(C(=O)OC)C3)C1)CC2 (single isomer, unassigned) [3-4 Isomer 1]: 316 nM

Req: Kindly indicate its recorded EC50. Item: CCOC(=O)N1CCC2(CC(N3CCC4(CC3)OC(=O)N(C)C4CC)C2)C1 (single isomer, unassigned) [4-20 Isomer 1]
Resp: 501 nM
